test: Permeability of the compound at 50 uM after 24 hrs at pH 7.4 by PAMPA; type: ADME; settings: read-out: permeability
metric: Papp at 24 h, 50 µM (×10⁻⁶ cm/s)
The response must be a number in ×10⁻⁶ cm/s with no trailing unit.

Supply Papp at 24 h, 50 µM value. Item: Cc1cc(O)c([C@@H]2O[C@H](CO)[C@@H](O)[C@H](O)[C@H]2O)cc1Cc1ccc(CCNC(=O)NC(CO)(CO)CO)cc1
0.3

###

assay: Oral bioavailability in Sprague-Dawley rat at 1 mg/kg administered as single dose by LC-MS analysis; format: ADME, organism-based; conditions: in vivo
metric: bioavailability (%)
The response must be a number in % with no trailing unit.

Supply bioavailability value. Item: Cc1cc(O)c([C@@H]2O[C@H](CO)[C@@H](O)[C@H](O)[C@H]2O)cc1Cc1ccc(CCNC(=O)NC(CO)(CO)CO)cc1
0.05

Cited source for all entries: ChEMBL document CHEMBL4265985
